Numbers sourced from ChEMBL document CHEMBL1201862.

Listing of recorded GI50 by entry.
# Tested on: RPMI-8226
# Assay Method Text: NCI tumour cell line growth inhibition, 48 h
Calls of active or inactive are those of the source. Rule as the data show it: active = GI50 up to about 1.1 µM and inactive = higher.
Measure: GI50

{"Compound": "CC(C)C1=CC23CCC4C(C)(C(=O)O)CCCC4(C)C2CC1C1C(=O)N(c2ccc(Cc4ccc(N5C(=O)C6C7CC8C9(C)CCCC(C)(C(=O)O)C9CCC8(C=C7C(C)C)C6C5=O)cc4)cc2)C(=O)C13 (stereo not given)", "Recorded Result": "9.14 µM (inactive)"}
{"Compound": "CC1=C2CC(C)(C)CC(=O)C2(C)CCC1=O (stereo not given)", "Recorded Result": "3.02 µM (inactive)"}
{"Compound": "NCCCNC1(c2cc3ccccc3s2)CCCCC1", "Recorded Result": "1.91 µM (inactive)"}
{"Compound": "c1ccc2nc3c(nc2c1)sc1nc2ccccc2n13", "Recorded Result": "> 100 µM (inactive)"}
{"Compound": "CN(CCO)c1nc(=O)c2c([nH]1)CCC2", "Recorded Result": "> 100 µM (inactive)"}
